// provenance: ChEMBL document CHEMBL4359931

PROTOCOL SUMMARY: Selectivity index, ratio of IC50 of mouse BALB/3T3 cells to IC50 of human MCF7 cells
Type: toxicity
RECORDED CONDITIONS: BALB/3T3 cells versus MCF7 cells, read-out: Ratio IC50
# selectivity ratio per entry
ASSAY READOUT: selectivity ratio

[[record]]
chemical_structure = "COc1c(Br)c2c(c(OC)c1OC)-c1ccc(SC)c(=O)cc1[C@@H](NC(=O)c1ccccc1)CC2"
assay_readout = "selectivity ratio"
experimental_value = 1.5

[[record]]
chemical_structure = "COc1c(Br)c2c(c(OC)c1OC)-c1ccc(SC)c(=O)cc1[C@@H](NC(=O)C(C)C)CC2"
assay_readout = "selectivity ratio"
experimental_value = 1.8

[[record]]
chemical_structure = "CCC(=O)N[C@H]1CCc2c(Br)c(OC)c(OC)c(OC)c2-c2ccc(SC)c(=O)cc21"
assay_readout = "selectivity ratio"
experimental_value = 1

[[record]]
chemical_structure = "CCCCCCCCCC(=O)N[C@H]1CCc2c(Br)c(OC)c(OC)c(OC)c2-c2ccc(SC)c(=O)cc21"
assay_readout = "selectivity ratio"
experimental_value = 0.1

[[record]]
chemical_structure = "COc1c(Br)c2c(c(OC)c1OC)-c1ccc(OC)c(=O)cc1[C@@H](NC(C)=O)CC2"
assay_readout = "selectivity ratio"
experimental_value = 5.3

[[record]]
chemical_structure = "COc1c(Br)c2c(c(OC)c1OC)-c1ccc(SC)c(=O)cc1[C@@H](NC(=O)CCCCl)CC2"
assay_readout = "selectivity ratio"
experimental_value = 1.3

[[record]]
chemical_structure = "COc1c(Br)c2c(c(OC)c1OC)-c1ccc(SC)c(=O)cc1[C@@H](N)CC2"
assay_readout = "selectivity ratio"
experimental_value = 7.1

[[record]]
chemical_structure = "COc1c(Br)c2c(c(OC)c1OC)-c1ccc(SC)c(=O)cc1[C@@H](NC(C)=O)CC2"
assay_readout = "selectivity ratio"
experimental_value = 7

[[record]]
chemical_structure = "COCC(=O)N[C@H]1CCc2c(Br)c(OC)c(OC)c(OC)c2-c2ccc(SC)c(=O)cc21"
assay_readout = "selectivity ratio"
experimental_value = 1

[[record]]
chemical_structure = "CCN(CC)C(=O)N[C@H]1CCc2c(Br)c(OC)c(OC)c(OC)c2-c2ccc(SC)c(=O)cc21"
assay_readout = "selectivity ratio"
experimental_value = 0.8

